Molecular target: Human cytomegalovirus DNA polymerase (Human cytomegalovirus (strain AD169) (HHV-5) (Human herpesvirus 5), UniProt P08546)
Assay: CMV polymerase assay (AlphaLISA)
Conditions: HCMV polymerase 0.2 nM, 30 min pre-incubation, 60 minute at 37° C.
Protocol: Human cytomegalovirus and varicella zoster virus DNA polymerases were expressed via baculovirus vector in SF21 cells and purified. Heterodimeric nucleic acid substrate used in the herpesvirus polymerase reactions were generated by annealing a 59-mer template to a 17-mer digoxigenin-labeled primer. […] Incorporation of biotinylated UTP was detected with 2.5-5 μg/mL anti-DIG AlphaLISA acceptor beads and 5-10 μg/mL streptavidin AlphaLISA donor beads (PerkinElmer). […]
pIC50: −log10 of the molar value.
true (1) means recorded pIC50 is 7 or above; false (0) means it is below 7.

Would you say Cc1nc2cc(C3CCC3O)c(O[C@H]3CCN4C(=O)OC[C@@H]4C3)cc2c(=O)n1Cc1ccc(C#N)cc1 (single isomer, unassigned) shows pIC50 at minimum 7?
true (1)

Reported pIC50 at or above 7? "CC(C)(O)Cc1cc2ccn(Cc3ccc(Cl)cc3)c(=O)c2cc1O[C@H]1CCN2C(=O)OC[C@@H]2C1"
true (1)

Attention now shifts to the item below.
Could you tell me if the measured pIC50 of "Cc1ncc(-c2cc3nc(C)n(Cc4ccc(Cl)cc4)c(=O)c3cc2O[C@H]2CCN3C(=O)OC[C@@H]3C2)cn1" reaches 7 or more?
true (1)

* * *

molecular target: varicella zoster virus DNA polymerase (Varicella-zoster virus (strain Dumas) (HHV-3) (Human herpesvirus 3), UniProt P09252); experiment: VZV polymerase assay (AlphaLISA); conditions: VZV polymerase 0.4 nM, 30 min pre-incubation, 60 minute at 37° C.
pIC50: −log10 of the molar value.
Classes (pIC50): low bin: < 8; mid bin: ≥ 8 and < 9; high bin: ≥ 9

The examples below pair each entry with its known result.
Determine which band this compound sits in: Cc1nc2cc(-c3cn(C(F)F)nn3)c(O[C@H]3CCN4C(=O)OC[C@@H]4C3)cc2c(=O)n1Cc1ccc(Cl)cc1 [Example 12]
high bin

# bin label for O=C1OC[C@@H]2C[C@@H](Oc3cnc4c(C5CC5)cn(Cc5ccc(Cl)cc5)c(=O)c4c3)CCN12 [Example 1]
low bin

For this compound, which bin applies? C[C@@H]1CN(C)CCN1c1cc(CC(C)(C)O)c2ncn(Cc3ccc(Cl)cc3)c(=O)c2c1 [Example 55]
low bin

Using the reported pIC50, which band applies to O=C1OC[C@@H]2C[C@@H](Oc3cc4c(=O)n(Cc5ccc(Cl)cc5)ccc4nc3-c3cnn(C(F)F)c3)CCN12 [Example 31] ?
mid bin

Looking at Cc1nc2cc(C3CC(O)C3)c(O[C@H]3CCN4C(=O)OC[C@@H]4C3)cc2c(=O)n1Cc1ccc(Cl)cc1 (single isomer, unassigned) [Example 62] , which class would you pick?
mid bin

New cases:
Band for the recorded pIC50 of CC(=O)N1CC[C@@H](Oc2cnc3ccn(Cc4ccc(Cl)cc4)c(=O)c3c2)C[C@H]1C (single isomer, unassigned) [Example 35] ?
low bin

Kindly identify the class of CC1CN(C)CCC1(F)c1ccc2ncn(Cc3ccc(Cl)cc3)c(=O)c2c1 (single isomer, unassigned) [Example 47] .
low bin

Any idea which band CN1CCN(c2ccc3ccn(Cc4ccc(Cl)cc4)c(=O)c3c2)CC1 [Example 21] is in?
low bin
